target: terminal deoxynucleotidyl transferase (TdT) (Bos taurus, UniProt P06526)
Sequence (P06526 whole entry): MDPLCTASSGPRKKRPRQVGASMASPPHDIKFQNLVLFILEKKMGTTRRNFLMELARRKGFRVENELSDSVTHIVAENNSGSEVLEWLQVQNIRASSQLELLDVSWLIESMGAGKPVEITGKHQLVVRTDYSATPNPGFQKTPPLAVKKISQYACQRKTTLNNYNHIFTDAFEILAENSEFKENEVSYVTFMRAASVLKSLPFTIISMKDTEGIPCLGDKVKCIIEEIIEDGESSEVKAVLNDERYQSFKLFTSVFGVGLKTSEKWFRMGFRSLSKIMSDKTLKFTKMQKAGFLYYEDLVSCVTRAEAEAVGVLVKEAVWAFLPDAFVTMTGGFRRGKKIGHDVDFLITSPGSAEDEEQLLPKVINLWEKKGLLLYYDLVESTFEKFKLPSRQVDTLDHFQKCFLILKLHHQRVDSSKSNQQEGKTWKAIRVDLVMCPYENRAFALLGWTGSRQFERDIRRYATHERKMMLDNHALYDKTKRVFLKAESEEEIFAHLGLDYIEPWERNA
Measured pIC50, listed per entry for reference.
// field semantics: pIC50 = negative decimal log of concentration (mol/L)

Compound: O=c1[nH]cnc2c1ncn2[C@H]1CC[C@@H](COP(=O)(O)OP(=O)(O)OP(=O)(O)O)O1 [ddITP, dideoxyinosine triphosphate]
pIC50: 4.70
--
Compound: Nc1nc2c(ncn2[C@H]2CC[C@@H](COP(=O)(O)OP(=O)(O)OP(=O)(O)O)O2)c(=O)[nH]1 [ddGTP, dideoxyguanosine triphosphate]
pIC50: 4.74

Query compound follows.
**Q:** Request body: readout pIC50, system terminal deoxynucleotidyl transferase (TdT) (Bos taurus, UniProt P06526), query Cc1cn([C@H]2CC[C@@H](COP(=O)(O)OP(=O)(O)OP(=O)(O)O)O2)c(=O)[nH]c1=O [ddTTP, 2',3'-dideoxythymidine triphosphate] . Return the value.
**A:** 4.33
